Consider the following molecules and their measured pest or weed control at 125 g/ha readings.
Test system: lambsquarters (Chenopodium album)
Method Notes: Test C postemergence
Format: in vivo
Measurement Context: Chenopodium album, post-emergence, 336 h; Postemergence, 125 g ai/ha, scale 0 to 100; read-out: Plant response rating, Lambsquarters
Assay Readout: pest or weed control at 125 g/ha (%)

INSERT INTO results (given_smiles, unit_symbol, measured_number) VALUES
  ('N#Cc1cccc(Oc2ncc(Cl)cn2)c1Oc1ncc(Cl)cn1', '%', 95),
  ('Fc1cccc(Oc2ncc(Cl)cn2)c1Oc1ccc(Cl)nc1', '%', 75),
  ('N#Cc1cccc(Oc2ncc(C(F)(F)F)cn2)c1Oc1ncc(Cl)cn1', '%', 85),
  ('Fc1cccc(Oc2ncc(C(F)(F)F)cn2)c1Oc1ncc(Cl)cn1', '%', 95),
  ('N#Cc1cccc(Oc2ncc(Cl)cn2)c1Oc1cnc(Cl)cn1', '%', 90),
  ('Fc1cnc(Oc2c(F)ccc(F)c2Oc2ncc(F)cn2)nc1', '%', 85),
  ('Fc1cccc(Oc2ncc(Cl)cn2)c1Oc1ncc(Br)cn1', '%', 80);

* * *

# Lookup of reported Corn plant response rating (crop injury, 0 = no effect, 100 = complete kill) at 31 g/ha keyed by entry
Test system: corn (Zea mays)
Method Notes: Test A postemergence
Format: in vivo
Measurement Context: Zea mays, post-emergence, 240 h, 31 g ai/ha, 0 to 100 scale
Assay Readout: Corn plant response rating (crop injury, 0 = no effect, 100 = complete kill) at 31 g/ha (%)

INSERT INTO assay_data (molecule, measured_number) VALUES
  ('N#Cc1cccc(Oc2ncc(Cl)cn2)c1Oc1ccc(Br)cn1 [Compound 15]', 10),
  ('N#Cc1cccc(Oc2ncc(Cl)cn2)c1Oc1ccc(Cl)cc1 [Compound 36]', 20),
  ('FCc1cccc(Oc2ncc(Cl)cn2)c1Oc1ncc(Cl)cn1 [Compound 44]', 20),
  ('N#Cc1cccc(Oc2ncc(C(F)(F)F)cn2)c1Oc1ncc(Cl)cn1 [Compound 39]', 60),
  ('N#Cc1cccc(Oc2ncc(F)cn2)c1Oc1ccc(Br)cn1 [Compound 9]', 0);

* * *

Test system: wild oat (Avena fatua)
Method Notes: Test C postemergence
Assay type: in vivo
Measurement Context: Avena fatua, post-emergence; Postemergence, 125 g ai/ha, scale 0 to 100; read-out: Plant response rating, Oat, Wild
Assay Readout: pest or weed control at 125 g/ha (%)

INSERT INTO assay_data (given_smiles, assay_readout, measured_number) VALUES
  ('Fc1ccc(F)c(Oc2ncc(Cl)cn2)c1Oc1ncc(Cl)cn1', 'pest or weed control at 125 g/ha', 10),
  ('Fc1cnc(Oc2c(Br)cccc2Oc2ncc(Cl)cn2)nc1', 'pest or weed control at 125 g/ha', 10),
  ('N#Cc1cccc(Oc2ncc(Cl)cn2)c1Oc1ncc(C(F)(F)F)cn1', 'pest or weed control at 125 g/ha', 10),
  ('FC(F)c1cccc(Oc2ncc(Cl)cn2)c1Oc1ncc(Cl)cn1', 'pest or weed control at 125 g/ha', 10),
  ('Fc1cccc(Oc2ncc(Cl)cn2)c1Oc1ncc(C(F)(F)F)cn1', 'pest or weed control at 125 g/ha', 60);

* * *

System: ragweed (common ragweed, Ambrosia elatior)
Method Notes: Test C preemergence
Format: in vivo
Measurement Context: Ambrosia artemisiifolia, pre-emergence, 336 h; 125 g ai/ha, preemergence; scale 0 to 100; read-out: Plant response rating, Ragweed
The following compounds are shown together with reported pest or weed control at 125 g/ha values.
Assay Readout: pest or weed control at 125 g/ha

INSERT INTO measurements (given_smiles, assay_readout, result) VALUES
  ('Fc1cnc(Oc2c(Cl)cccc2Oc2ncc(Cl)cn2)nc1', 'pest or weed control at 125 g/ha', '95%'),
  ('N#Cc1cccc(Oc2ncc(Br)cn2)c1Oc1ncc(Cl)cn1', 'pest or weed control at 125 g/ha', '100%'),
  ('FC(F)c1cccc(Oc2ncc(Cl)cn2)c1Oc1ncc(Cl)cn1', 'pest or weed control at 125 g/ha', '100%'),
  ('Fc1cnc(Oc2c(F)ccc(F)c2Oc2ncc(F)cn2)nc1', 'pest or weed control at 125 g/ha', '95%'),
  ('Fc1ccc(F)c(Oc2ncc(Cl)cn2)c1Oc1ncc(Cl)cn1', 'pest or weed control at 125 g/ha', '40%'),
  ('Fc1cnc(Oc2c(F)cccc2Oc2ncc(Cl)cn2)nc1', 'pest or weed control at 125 g/ha', '100%'),
  ('N#Cc1cccc(Oc2ncc(Cl)cn2)c1Oc1ccc(Br)cn1', 'pest or weed control at 125 g/ha', '40%');

* * *

Listing of recorded Corn plant response rating (crop injury, 0 = no effect, 100 = complete kill) at 31 g/ha by entry.
System: corn (Zea mays)
Method Notes: Test C postemergence
Type: in vivo
Measurement Context: Zea mays, post-emergence, 336 h; Postemergence, 31 g ai/ha, scale 0 to 100
Assay Readout: Corn plant response rating (crop injury, 0 = no effect, 100 = complete kill) at 31 g/ha

INSERT INTO measurements (given_smiles, result) VALUES
  ('Fc1ccc(F)c(Oc2ncc(Cl)cn2)c1Oc1ncc(Cl)cn1', '5%'),
  ('Clc1cnc(Oc2cccc(Cl)c2Oc2ncc(Br)cn2)nc1', '5%'),
  ('N#Cc1cccc(Oc2ncc(Cl)cn2)c1Oc1ccc(Cl)cc1', '15%'),
  ('Fc1cnc(Oc2c(F)ccc(F)c2Oc2ncc(F)cn2)nc1', '0%'),
  ('Fc1cnc(Oc2c(Br)cccc2Oc2ncc(Cl)cn2)nc1', '5%'),
  ('Fc1cccc(Oc2ncc(C(F)(F)F)cn2)c1Oc1ncc(Cl)cn1', '5%');

* * *

# reported pest or weed control at 125 g/ha; entries follow
Tested on: blackgrass (Alopecurus myosuroides)
Method Notes: Test C postemergence
Type: in vivo
Measurement Context: Alopecurus myosuroides, post-emergence, 336 h; Postemergence, 125 g ai/ha, scale 0 to 100; read-out: Plant response rating, Blackgrass
Assay Readout: pest or weed control at 125 g/ha (%)

INSERT INTO measurements (given_smiles, measured_number) VALUES
  ('Fc1cccc(Oc2ncc(Cl)cn2)c1Oc1ncc(C(F)(F)F)cn1', 95),
  ('Clc1cnc(Oc2cccc(Cl)c2Oc2ncc(Br)cn2)nc1', 15),
  ('N#Cc1cccc(Oc2ncc(Cl)cn2)c1Oc1cnc(Cl)cn1', 10),
  ('Fc1cnc(Oc2c(F)ccc(F)c2Oc2ncc(F)cn2)nc1', 20),
  ('Fc1cccc(Oc2ncc(Cl)cn2)c1Oc1ncc(Cl)cn1', 70),
  ('Fc1cccc(Oc2ncc(Cl)cn2)c1Oc1ccc(Cl)nc1', 5);

* * *

System: Italian ryegrass (Lolium multiflorum)
Method Notes: Test C preemergence
Assay type: in vivo
Measurement Context: Lolium multiflorum, pre-emergence, 336 h; 62 g ai/ha, preemergence; scale 0 to 100; read-out: Plant response rating, Ryegrass, Italian
Consider the following molecules and their measured pest or weed control at 62 g/ha readings.
Assay Readout: pest or weed control at 62 g/ha (%)

INSERT INTO results (molecule, system_under_test, assay_readout, measured_number) VALUES
  ('N#Cc1cccc(Oc2ncc(C(F)(F)F)cn2)c1Oc1ncc(Cl)cn1 [Compound 39]', 'Italian ryegrass (Lolium multiflorum)', 'pest or weed control at 62 g/ha', 75),
  ('Fc1cnc(Oc2c(F)ccc(F)c2Oc2ncc(F)cn2)nc1 [Compound 29]', 'Italian ryegrass (Lolium multiflorum)', 'pest or weed control at 62 g/ha', 50),
  ('Fc1cccc(Oc2ncc(Cl)cn2)c1Oc1ncc(Cl)cn1 [Compound 21]', 'Italian ryegrass (Lolium multiflorum)', 'pest or weed control at 62 g/ha', 85),
  ('N#Cc1cccc(Oc2ncc(Br)cn2)c1Oc1ncc(Cl)cn1 [Compound 5]', 'Italian ryegrass (Lolium multiflorum)', 'pest or weed control at 62 g/ha', 55),
  ('N#Cc1cccc(Oc2ncc(Cl)cn2)c1Oc1ncc(Cl)cn1 [Compound 3]', 'Italian ryegrass (Lolium multiflorum)', 'pest or weed control at 62 g/ha', 35),
  ('Fc1cccc(Oc2ncc(Cl)cn2)c1Oc1ncc(Br)cn1 [Compound 27]', 'Italian ryegrass (Lolium multiflorum)', 'pest or weed control at 62 g/ha', 55);

* * *

Test system: downy bromegrass (Bromus tectorum)
Method Notes: Test D postemergence
Type: in vivo
Measurement Context: 62 g ai/ha, scale 0 to 100
Catalogue of Plant response rating, Bromegrass, Downy readings, one per entry.
Assay Readout: Plant response rating, Bromegrass, Downy

INSERT INTO measurements (given_smiles, system_under_test, assay_readout, measured_number) VALUES
  ('Fc1cnc(Oc2c(Br)cccc2Oc2ncc(Cl)cn2)nc1', 'downy bromegrass (Bromus tectorum)', 'Plant response rating, Bromegrass, Downy', 20),
  ('N#Cc1cccc(Oc2ncc(Cl)cn2)c1Oc1ncc(Cl)cn1', 'downy bromegrass (Bromus tectorum)', 'Plant response rating, Bromegrass, Downy', 25),
  ('Fc1cnc(Oc2c(F)cccc2Oc2ncc(Cl)cn2)nc1', 'downy bromegrass (Bromus tectorum)', 'Plant response rating, Bromegrass, Downy', 20),
  ('FC(F)(F)c1cnc(Oc2c(Br)cccc2Oc2ncc(Cl)cn2)nc1', 'downy bromegrass (Bromus tectorum)', 'Plant response rating, Bromegrass, Downy', 20);
